Quick reference: Nav1.7 Single Point Data IWQ (at […]) (%) of the listed items.
biological target: Nav 1.7 (Homo sapiens (Human), UniProt Q15858); test: Nav 1.7 IWQ in vitro assay (IonWorks Quattro population patch-clamp); assay type: cell-based; conditions: at […]
Sequence (Q15858 whole entry): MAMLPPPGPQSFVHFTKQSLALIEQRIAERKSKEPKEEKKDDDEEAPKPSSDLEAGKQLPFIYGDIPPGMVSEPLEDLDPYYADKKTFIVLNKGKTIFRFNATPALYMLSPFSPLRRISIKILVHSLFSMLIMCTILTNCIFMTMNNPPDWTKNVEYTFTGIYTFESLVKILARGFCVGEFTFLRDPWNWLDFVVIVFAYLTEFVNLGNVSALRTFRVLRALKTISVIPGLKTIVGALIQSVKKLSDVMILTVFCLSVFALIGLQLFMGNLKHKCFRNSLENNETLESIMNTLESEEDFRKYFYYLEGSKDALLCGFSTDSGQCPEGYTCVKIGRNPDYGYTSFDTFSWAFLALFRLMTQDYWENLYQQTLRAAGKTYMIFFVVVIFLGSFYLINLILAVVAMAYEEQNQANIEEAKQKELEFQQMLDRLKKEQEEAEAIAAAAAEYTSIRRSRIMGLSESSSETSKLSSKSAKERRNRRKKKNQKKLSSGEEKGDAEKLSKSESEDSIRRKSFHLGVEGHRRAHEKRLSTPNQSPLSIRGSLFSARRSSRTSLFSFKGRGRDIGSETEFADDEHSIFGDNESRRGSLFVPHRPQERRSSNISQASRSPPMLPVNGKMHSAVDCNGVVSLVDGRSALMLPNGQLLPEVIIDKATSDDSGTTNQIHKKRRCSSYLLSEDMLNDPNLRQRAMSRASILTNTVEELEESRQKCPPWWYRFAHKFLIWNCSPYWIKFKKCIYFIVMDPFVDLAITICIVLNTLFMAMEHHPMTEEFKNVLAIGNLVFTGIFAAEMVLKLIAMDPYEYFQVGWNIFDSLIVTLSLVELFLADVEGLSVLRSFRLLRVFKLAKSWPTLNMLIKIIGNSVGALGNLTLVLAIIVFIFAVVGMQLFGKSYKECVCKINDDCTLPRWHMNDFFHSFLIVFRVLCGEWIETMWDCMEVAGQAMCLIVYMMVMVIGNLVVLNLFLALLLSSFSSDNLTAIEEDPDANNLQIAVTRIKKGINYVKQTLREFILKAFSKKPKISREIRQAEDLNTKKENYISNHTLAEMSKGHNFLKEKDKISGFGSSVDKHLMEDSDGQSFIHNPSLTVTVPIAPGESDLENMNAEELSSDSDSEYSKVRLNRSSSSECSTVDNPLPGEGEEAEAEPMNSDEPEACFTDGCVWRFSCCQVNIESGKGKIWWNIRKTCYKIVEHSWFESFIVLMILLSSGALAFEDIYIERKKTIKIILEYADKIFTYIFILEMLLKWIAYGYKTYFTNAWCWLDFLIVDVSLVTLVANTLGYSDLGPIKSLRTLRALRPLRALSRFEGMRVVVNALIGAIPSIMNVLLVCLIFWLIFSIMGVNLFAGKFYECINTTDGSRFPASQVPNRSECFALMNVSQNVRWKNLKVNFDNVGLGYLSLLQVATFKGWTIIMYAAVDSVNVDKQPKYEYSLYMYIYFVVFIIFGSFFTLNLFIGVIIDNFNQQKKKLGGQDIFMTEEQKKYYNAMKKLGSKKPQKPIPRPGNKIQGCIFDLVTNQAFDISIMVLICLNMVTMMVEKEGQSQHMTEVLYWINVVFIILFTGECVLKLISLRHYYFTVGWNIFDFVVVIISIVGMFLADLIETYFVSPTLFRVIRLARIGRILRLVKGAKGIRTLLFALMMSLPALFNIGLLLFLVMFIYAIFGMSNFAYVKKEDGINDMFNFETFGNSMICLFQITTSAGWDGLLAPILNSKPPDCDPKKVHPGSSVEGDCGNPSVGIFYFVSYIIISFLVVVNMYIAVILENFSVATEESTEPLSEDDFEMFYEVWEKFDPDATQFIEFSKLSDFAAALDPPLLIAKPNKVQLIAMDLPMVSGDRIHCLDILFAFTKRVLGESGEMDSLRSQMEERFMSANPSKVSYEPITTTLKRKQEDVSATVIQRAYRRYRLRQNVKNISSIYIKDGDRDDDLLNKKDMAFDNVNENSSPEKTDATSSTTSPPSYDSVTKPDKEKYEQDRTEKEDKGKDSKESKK
Please respond with the number in % and leave the unit unwritten.

[
  {
    "molecule": "O=S(=O)(Nc1ccncn1)c1ccc2c(OCCCc3cn[nH]c3C(F)(F)F)nccc2c1",
    "recorded.result": 20
  }
]

Return Nav1.7 Single Point Data IWQ (at […]) (%) measured with Nav 1.7 (Homo sapiens (Human), UniProt Q15858) given this molecule: O=S(=O)(Nc1nccs1)c1ccc2c(N3CCCCC3c3cccnc3)ncnc2c1 (stereo not shown)
28.3

Return Nav1.7 Single Point Data IWQ (at […]) (%) measured with Nav 1.7 (Homo sapiens (Human), UniProt Q15858) given this molecule: "O=S(=O)(Nc1ccncn1)c1ccc2c(OCC(F)(F)C3CCOCC3)nccc2c1"
49

====

molecular target: Nav 1.7 (Homo sapiens (Human), UniProt Q15858); assay: Nav 1.7 in vitro PX assay (PatchXpress whole cell voltage clamp); format: cell-based; settings: 293 cells, human Nav1.7, partially inactivated state; read-out: Nav1.7 PX IC50 IP
measured.endpoint: pIC50
Recall that pIC50 is obtained by taking minus log10 of the concentration measured in molar.

[
  {
    "compound": "O=S(=O)(Nc1ccncn1)c1ccc2c(-c3cc4cc(F)ccc4[nH]3)cccc2c1",
    "recorded.result": 4.95
  },
  {
    "compound": "COc1cc(-c2ccc(Cl)c(C)c2)ccc1-c1nccc2cc(S(=O)(=O)Nc3ccncn3)ccc12",
    "recorded.result": 7.07
  }
]

Reported pIC50 for "O=S(=O)(Nc1ncns1)c1ccc2c(NCc3ccccc3)cccc2c1" : what is it?
5.35

Reported pIC50 for "COc1ccc(-c2ccc(-c3nccc4cc(S(=O)(=O)Nc5ccncn5)ccc34)c(OC)c2)cc1" : what is it?
6.44

====

Quick reference: pIC50 of the listed items.
molecular target: UniProtKB Q15858; assay: Nav 1.7 IWQ in vitro assay (IonWorks Quattro population patch-clamp); assay type: cell-based; details: 293 cells stably transfected with Nav 1.7; second part of table; read-out: Nav1.7 IWQ IC50 IP
Recall that pIC50 is obtained by taking minus log10 of the concentration measured in molar.

Return pIC50 measured with UniProtKB Q15858 given this compound: COc1cc(OC(F)(F)F)ccc1-c1nccc2cc(S(=O)(=O)Nc3ccncn3)ccc12 [Example 153]
7.70

Return pIC50 measured with UniProtKB Q15858 given this compound: COc1cc(F)ccc1-c1nncc2cc(S(=O)(=O)Nc3nccs3)ccc12 [Example 250]
7.30

Return pIC50 measured with UniProtKB Q15858 given this compound: Cc1c(-c2nccc3cc(S(=O)(=O)Nc4nccs4)ccc23)cnn1-c1ccccc1 [Example 208, 2,2,2-TRIFLUOROACETATE]
5.67

Return pIC50 measured with UniProtKB Q15858 given this compound: COc1cc(C(F)(F)F)ccc1-c1nncc2cc(S(=O)(=O)Nc3nccs3)ccc12 [Example 253]
7.70

====

target: Nav 1.7 (Homo sapiens (Human)); experiment: Nav 1.7 IWQ in vitro assay (IonWorks Quattro population patch-clamp); assay type: cell-based; conditions: 293 cells stably transfected with Nav 1.7; second part of table; read-out: Nav1.7 IWQ IC50 IP
measured.endpoint: pIC50
Recall that pIC50 is obtained by taking minus log10 of the concentration measured in molar.

Record excerpt, results attached:
[
  {
    "compound": "COc1cc(C#N)ccc1-c1ccnc2cc(S(=O)(=O)Nc3nccs3)ccc12",
    "test.system": "Nav 1.7 (Homo sapiens (Human))",
    "pIC50": 7.70
  },
  {
    "compound": "COc1cc(C2CC2)ccc1-c1cccc2cc(S(=O)(=O)Nc3ccncn3)ccc12",
    "test.system": "Nav 1.7 (Homo sapiens (Human))",
    "pIC50": 7.40
  },
  {
    "compound": "COc1cc(C(F)(F)F)ccc1-c1ncc(F)c2cc(S(=O)(=O)Nc3ccncn3)ccc12",
    "test.system": "Nav 1.7 (Homo sapiens (Human))",
    "pIC50": 7.40
  },
  {
    "compound": "O=S(=O)(Nc1ccncn1)c1ccc2c(-c3ccc(C(F)(F)F)cc3C3CCNCC3)cccc2c1",
    "test.system": "Nav 1.7 (Homo sapiens (Human))",
    "pIC50": 8.00
  },
  {
    "compound": "COc1cccc(F)c1-c1nccc2cc(S(=O)(=O)Nc3ccncn3)ccc12",
    "test.system": "Nav 1.7 (Homo sapiens (Human))",
    "pIC50": 6.74
  }
]

# input for lookup
Reported pIC50 for "COc1cc(C(F)(F)F)ccc1-c1nccc2cc(S(=O)(=O)Nc3nccs3)cnc12" : what is it?
6.80

====

molecular target: Nav 1.7 (Homo sapiens (Human), UniProt Q15858); assay: Nav 1.7 in vitro PX assay (PatchXpress whole cell voltage clamp); assay type: cell-based; conditions: 293 cells, human Nav1.7, partially inactivated state; read-out: Nav1.7 PX IC50 IP
Quick reference: pIC50 of the listed items.
Recall that pIC50 is obtained by taking minus log10 of the concentration measured in molar.

Record excerpt, results attached:
[
  {
    "smiles.text": "COc1cc(C(F)(F)F)ccc1-c1nccc2cc(S(=O)(=O)Nc3nccs3)ccc12",
    "pIC50": 6.53
  },
  {
    "smiles.text": "Cc1cc(C#N)ccc1-c1ccnc2cc(S(=O)(=O)Nc3ncns3)ccc12",
    "pIC50": 5.64
  },
  {
    "smiles.text": "COc1cc(C(F)(F)F)ccc1-c1nccc2cc(S(=O)(=O)Nc3nc(C(F)(F)F)cs3)ccc12",
    "pIC50": 5.34
  },
  {
    "smiles.text": "COc1ccc(Cl)cc1-c1nccc2cc(S(=O)(=O)Nc3ccncn3)ccc12",
    "pIC50": 5.86
  }
]

Reported pIC50 for "COc1cc(C(F)(F)F)ccc1-c1ccnc2cc(S(=O)(=O)Nc3nccs3)cc(C)c12" : what is it?
5.48

Reported pIC50 for "COc1cc(-c2cccc(F)c2)c(Cl)cc1-c1ncnc2cc(S(=O)(=O)Nc3nncs3)ccc12" : what is it?
7.47

Reported pIC50 for "COc1nc(C)ccc1-c1nccc2cc(S(=O)(=O)Nc3nccs3)ccc12" : what is it?
5.99

Reported pIC50 for "COc1cc(C(F)(F)F)ccc1-c1nc(C)nc2cc(S(=O)(=O)Nc3nccs3)ccc12" : what is it?
6.33

Reported pIC50 for "COc1ccc(-c2cccc(C(F)(F)F)c2)cc1-c1nccc2cc(S(=O)(=O)Nc3nncs3)ccc12" : what is it?
7.47

Reported pIC50 for "COc1cc(Cl)ccc1-c1ncnc2cc(S(=O)(=O)Nc3ccncn3)ccc12" : what is it?
5.64

Reported pIC50 for "COc1cc(C(F)(F)F)ccc1-c1nncc2cc(S(=O)(=O)Nc3ccncn3)ccc12" : what is it?
5.28

Reported pIC50 for "COc1cc(C(F)(F)F)ccc1-c1nc(=O)[nH]c2cc(S(=O)(=O)Nc3nccs3)ccc12" : what is it?
5.34

Reported pIC50 for "COc1ccc(OC)c(-c2nccc3cc(S(=O)(=O)Nc4ccncn4)ccc23)c1" : what is it?
5.24

Reported pIC50 for "COc1cc(-c2ccc(F)cc2F)ccc1-c1nccc2cc(S(=O)(=O)Nc3ccncn3)ccc12" : what is it?
6.66

Reported pIC50 for "COc1cc(-c2c(C)ccnc2F)ccc1-c1nccc2cc(S(=O)(=O)Nc3ccncn3)ccc12" : what is it?
5.56

Reported pIC50 for "COc1ccc(F)cc1-c1nccc2cc(S(=O)(=O)Nc3ccncn3)ccc12" : what is it?
5.62

====

Target: Nav 1.7 (Homo sapiens (Human))
Assay: Nav 1.7 IWQ in vitro assay (IonWorks Quattro population patch-clamp)
Assay type: cell-based
Details: 293 cells stably transfected with Nav 1.7; second part of table; read-out: Nav1.7 IWQ IC50 IP
Method: Nav 1.7 or Nav 1.5 IWQ In Vitro Assay 293 Cells stably transfected with either Nav 1.7 or Nav 1.5 were recorded in population patch-clamp mode with the IonWorks® Quattro automated electrophysiology system in accordance with the manufacturer's specifications (Molecular Devices, LLC, Sunnyvale, Calif.). Sodium channel currents were measured in response to a train of depolarizations that induced successively greater inactivation. […]
Quick reference: pIC50 of the listed items.
Recall that pIC50 is obtained by taking minus log10 of the concentration measured in molar.

Record excerpt, results attached:
[
  {
    "compound": "O=S(=O)(Nc1ncns1)c1ccc2c(N3CCC[C@@H]3c3cccnc3)cccc2c1 (single isomer, unassigned)",
    "recorded.result": 6.34
  },
  {
    "compound": "COc1cc(Cl)ccc1-c1nccc2cc(S(=O)(=O)Nc3nccs3)ccc12",
    "recorded.result": 7.70
  }
]

Reported pIC50 for "COc1cc(C(F)(F)F)ccc1-c1nccc2cc(S(=O)(=O)Nc3nccs3)ccc12" : what is it?
8.00
